# tested-target: ATP-dependent translocase ABCB1 (Homo sapiens)
# Sequence (P08183 whole entry): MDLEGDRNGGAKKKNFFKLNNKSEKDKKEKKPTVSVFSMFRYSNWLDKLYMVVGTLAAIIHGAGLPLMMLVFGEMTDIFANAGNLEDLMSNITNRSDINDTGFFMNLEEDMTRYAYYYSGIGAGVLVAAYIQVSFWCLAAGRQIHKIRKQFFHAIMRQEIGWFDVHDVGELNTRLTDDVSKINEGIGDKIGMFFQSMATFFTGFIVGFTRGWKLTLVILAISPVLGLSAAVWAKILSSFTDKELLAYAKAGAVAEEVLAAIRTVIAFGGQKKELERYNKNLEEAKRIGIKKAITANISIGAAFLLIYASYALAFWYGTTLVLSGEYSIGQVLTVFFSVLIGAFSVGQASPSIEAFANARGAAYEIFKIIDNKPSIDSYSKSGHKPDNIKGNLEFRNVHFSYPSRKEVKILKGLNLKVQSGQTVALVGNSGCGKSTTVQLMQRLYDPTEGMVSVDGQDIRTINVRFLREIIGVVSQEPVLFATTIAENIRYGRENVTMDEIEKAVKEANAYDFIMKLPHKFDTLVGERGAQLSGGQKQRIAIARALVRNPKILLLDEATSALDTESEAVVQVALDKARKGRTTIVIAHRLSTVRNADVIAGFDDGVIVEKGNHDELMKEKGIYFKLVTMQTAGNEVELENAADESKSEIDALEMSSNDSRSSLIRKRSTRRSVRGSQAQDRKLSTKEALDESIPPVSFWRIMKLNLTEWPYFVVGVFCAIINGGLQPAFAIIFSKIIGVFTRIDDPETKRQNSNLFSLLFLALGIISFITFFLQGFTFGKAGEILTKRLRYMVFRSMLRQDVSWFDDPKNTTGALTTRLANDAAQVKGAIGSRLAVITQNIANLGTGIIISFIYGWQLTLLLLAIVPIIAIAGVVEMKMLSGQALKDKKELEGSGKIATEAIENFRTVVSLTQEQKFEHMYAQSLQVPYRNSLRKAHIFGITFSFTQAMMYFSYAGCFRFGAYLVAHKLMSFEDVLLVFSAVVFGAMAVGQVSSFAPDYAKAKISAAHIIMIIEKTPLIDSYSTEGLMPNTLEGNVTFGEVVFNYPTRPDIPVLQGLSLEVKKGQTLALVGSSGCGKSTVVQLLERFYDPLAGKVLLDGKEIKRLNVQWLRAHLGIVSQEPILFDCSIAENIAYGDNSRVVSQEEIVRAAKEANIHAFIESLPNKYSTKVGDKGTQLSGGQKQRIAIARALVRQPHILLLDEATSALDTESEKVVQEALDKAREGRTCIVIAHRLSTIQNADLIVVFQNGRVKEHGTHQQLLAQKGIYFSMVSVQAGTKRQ
# assay-details: Modulation of human P-gp transfected in mouse L5178Y cells assessed as change in Rhodamine-123 efflux by measuring fluorescence activity ratio at 2 uM pretreated for 10 mins followed by Rhodamine-123 challenge for 20 mins by flow cytometry relative to parental mouse L5178Y cells
# Format: cell-based
# stated-conditions: 0.5 h, time 30 min
readout-name: Ratio

Use the examples below as a reference point.
[[record]]
line_notation = "C=C1CC[C@@H]2[C@](C)(COC(C)=O)[C@H](OC(C)=O)CC[C@@]2(C)[C@@H]1C[C@H](NNC(=S)Nc1ccccc1F)C1=CCOC1=O"
test_value = 1.03

[[record]]
line_notation = "C=C1CC[C@@H]2[C@](C)(COC(C)=O)[C@H](OC(C)=O)CC[C@@]2(C)[C@@H]1C[C@H](NNC(=S)Nc1ccccc1C)C1=CCOC1=O"
test_value = 1.06

[[record]]
line_notation = "C=C1CC[C@@H]2[C@](C)(COC(C)=O)[C@H](OC(C)=O)CC[C@@]2(C)[C@@H]1C[C@H](NNC(=S)NC)C1=CCOC1=O"
test_value = 0.88

[[record]]
line_notation = "C=C1CC[C@@H]2[C@](C)(COC(C)=O)[C@H](OC(C)=O)CC[C@@]2(C)[C@@H]1C[C@@H](NNC(=O)c1ccc(C(F)(F)F)cc1)C1=CCOC1=O"
test_value = 5.19


[P] C=C1CC[C@@H]2[C@](C)(COC(C)=O)[C@H](OC(C)=O)CC[C@@]2(C)[C@@H]1C[C@H](NNC(=O)c1ccco1)C1=CCOC1=O
[Q] C=C1CC[C@@H]2[C@](C)(COC(C)=O)[C@H](OC(C)=O)CC[C@@]2(C)[C@@H]1C[C@H](NNC(=S)Nc1ccc([N+](=O)[O-])cc1)C1=CCOC1=O
Would you let me know which has the greater Ratio value, P or Q ? Answer with the label corresponding to your selection. Q
